system: T1, human NGF (human, UniProt P01138 122-241)
T1 construct: also called human Nerve Growth Factor; hN
T1 chain: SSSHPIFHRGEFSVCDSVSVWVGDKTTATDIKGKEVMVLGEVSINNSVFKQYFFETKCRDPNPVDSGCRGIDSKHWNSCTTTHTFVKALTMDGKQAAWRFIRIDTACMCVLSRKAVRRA
assay info: SPR (Biacore), human NGF amine-coupled on chip, antibody injected
readout name: Kd (nM)
Numbers only, in nM.

Some solved cases for reference:
humanized mAb can48L2VH_HM855323.1 / can48L2VL_Z22192.1_P8A (antibody, V domains shown) VH: EVQLVESGGGLVKPGGSLRLSCAASGFTFSTYGINWVRQAPGKGLEWVSYISSGGSSTYYADSVKGRFTISRDNAKNSLYLQMNSLRAEDTAVYYCAGSRYTYAYGGGYEFHFWGQGTLVTVSS VL: QSVVTQPASVSGAPGQRVTISCTGSTMDIDIFGVSWYQQLPGTAPKLLIYGDGDRPSGVPDRFSGSKSGASASLAITGLQAEDEADYHCQSGDSTLGALAIFGGGTHVTVL: 1.54
humanized mAb can48L2VH_HM855336.1 / can48L2VL_Z22192.1_P8A (antibody, V domains shown) VH: EVQLVESGGGLVQPGGSLRLSCAASGFTFSTYGMNWVRQAPGKGLEWVSYISSGGSSIYYADSVKGRFTISRDNAKNSLYLQMNSLRAEDTAVYYCAGSRYTYAYGGGYEFHFWGQGTLVTVSS VL: QSVVTQPASVSGAPGQRVTISCTGSTMDIDIFGVSWYQQLPGTAPKLLIYGDGDRPSGVPDRFSGSKSGASASLAITGLQAEDEADYHCQSGDSTLGALAIFGGGTHVTVL: 0.841

Ask: Please look up its Kd: humanized mAb can48L2VH_HM855323.1 / can48L2VL_Z22192.1_P14L (antibody, V domains shown) VH: EVQLVESGGGLVKPGGSLRLSCAASGFTFSTYGINWVRQAPGKGLEWVSYISSGGSSTYYADSVKGRFTISRDNAKNSLYLQMNSLRAEDTAVYYCAGSRYTYAYGGGYEFHFWGQGTLVTVSS VL: QSVVTQPPSVSGALGQRVTISCTGSTMDIDIFGVSWYQQLPGTAPKLLIYGDGDRPSGVPDRFSGSKSGASASLAITGLQAEDEADYHCQSGDSTLGALAIFGGGTHVTVL
Result: 0.00102
